Provide the reported CLint Rat of each item.
test: In vitro metabolic stability in rat liver microsome; assay type: in vitro ADME; settings: rat liver microsomes
One number for each entry, in μL/min/mg proteins.

# chemical structure, observed result
data = [
    ("N[C@@H]1c2ccccc2CC12CCN(c1nc3[nH]nc(C4(c5ccc6c(c5)OC(F)(F)O6)CC4)c3c(=O)[nH]1)CC2", 14.3),
    ("Nc1ccc(C2(c3n[nH]c4nc(N5CCC6(CC5)Cc5ccccc5[C@H]6N)[nH]c(=O)c34)CC2)cc1", 3.2),
]

Kindly consider the entry below.
Request: Given N[C@@H]1c2ccccc2CC12CCN(c1nc3[nH]nc(C4(c5csnn5)CC4)c3c(=O)[nH]1)CC2 , state its recorded CLint Rat.
Result: 15.0

* * *

Provide the reported IC50 of each item.
biological target: SHP2 (Homo sapiens, UniProt Q06124); experiment: SHP2 allosteric inhibitor enzyme activity assay (DiFMUP fluorescence); assay type: biochemical; conditions: class symbols
Sequence (Q06124 whole entry): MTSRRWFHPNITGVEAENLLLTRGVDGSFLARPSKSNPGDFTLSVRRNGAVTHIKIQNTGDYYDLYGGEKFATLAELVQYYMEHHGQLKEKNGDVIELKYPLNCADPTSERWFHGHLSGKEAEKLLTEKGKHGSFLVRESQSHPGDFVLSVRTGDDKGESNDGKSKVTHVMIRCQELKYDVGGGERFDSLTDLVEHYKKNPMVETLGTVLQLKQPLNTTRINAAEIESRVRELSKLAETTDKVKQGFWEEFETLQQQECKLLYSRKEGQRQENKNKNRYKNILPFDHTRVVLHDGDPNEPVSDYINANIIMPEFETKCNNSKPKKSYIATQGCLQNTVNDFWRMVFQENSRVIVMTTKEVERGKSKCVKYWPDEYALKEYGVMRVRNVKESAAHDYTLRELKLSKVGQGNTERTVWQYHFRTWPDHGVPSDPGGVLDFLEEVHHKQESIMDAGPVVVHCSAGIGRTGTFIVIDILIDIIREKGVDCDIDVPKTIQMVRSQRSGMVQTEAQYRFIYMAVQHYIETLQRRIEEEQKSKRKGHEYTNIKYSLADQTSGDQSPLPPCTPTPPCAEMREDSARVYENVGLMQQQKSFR

Illustrative cases are given below, each with its answer.
# chemical structure, observed result
data = [
    ("CC1(C)C=C(c2n[nH]c3nc(N4CCC5(CC4)Cc4ccccc4[C@H]5N)[nH]c(=O)c23)c2cc(C#N)cnc2C1", "≤ 20 nM"),
    ("C[C@@H]1OCC2(CCN(c3nc4[nH]nc(C5(c6nccs6)CC5)c4c(=O)[nH]3)CC2)[C@@H]1N", "20 to 60 nM"),
    ("C#Cc1cccc(C2(c3n[nH]c4nc(N5CCC6(CC5)Cc5ccccc5[C@H]6N)[nH]c(=O)c34)CC2)c1", "≤ 20 nM"),
]

Kindly consider the entry below.
Request: Given N[C@@H]1c2ccccc2CC12CCN(c1nc3[nH]nc(C4(c5cccc(C6CCOCC6)c5)CC4)c3c(=O)[nH]1)CC2 , state its recorded IC50.
Result: ≤ 20 nM

* * *

test system: leukemia MV-4-11 cell; assay: Cell proliferation assay (CellTiter-Glo), MV-4-11; format: cell-based; conditions: Homo sapiens, MV4-11; MV-4-11, 120 hrs, CTG; numeric values; read-out: Compound on MV-4-11 cell IC50
Provide the reported pIC50 of each item.
Give bare numbers, as −log10 of the molar value.

Illustrative cases are given below, each with its answer.
# chemical structure, pIC50
measured = [
    ("N[C@@H]1c2ccccc2CC12CCN(c1nc3[nH]nc(C4(c5ccc(F)cc5)CC4)c3c(=O)[nH]1)CC2", 8.92),
    ("N[C@@H]1c2ccccc2CC12CCN(c1nc3[nH]nc(C4(c5cccc(F)c5)CC4)c3c(=O)[nH]1)CC2", 8.19),
]

Kindly consider the entry below.
Request: Given N[C@@H]1c2ccccc2CC12CCN(c1nc3[nH]nc(C4=CCOc5cc(F)ccc54)c3c(=O)[nH]1)CC2 , state its recorded pIC50.
Result: 8.85

* * *

Provide the reported IC50 of each item.
molecular target: UniProtKB Q12809; assay: Patch clamp assay to test the effect of compound on hERG channel; conditions: manual patch clamp, HEK 293 cells expressed with hERG, concentration for half maximum effect
Sequence (Q12809 whole entry): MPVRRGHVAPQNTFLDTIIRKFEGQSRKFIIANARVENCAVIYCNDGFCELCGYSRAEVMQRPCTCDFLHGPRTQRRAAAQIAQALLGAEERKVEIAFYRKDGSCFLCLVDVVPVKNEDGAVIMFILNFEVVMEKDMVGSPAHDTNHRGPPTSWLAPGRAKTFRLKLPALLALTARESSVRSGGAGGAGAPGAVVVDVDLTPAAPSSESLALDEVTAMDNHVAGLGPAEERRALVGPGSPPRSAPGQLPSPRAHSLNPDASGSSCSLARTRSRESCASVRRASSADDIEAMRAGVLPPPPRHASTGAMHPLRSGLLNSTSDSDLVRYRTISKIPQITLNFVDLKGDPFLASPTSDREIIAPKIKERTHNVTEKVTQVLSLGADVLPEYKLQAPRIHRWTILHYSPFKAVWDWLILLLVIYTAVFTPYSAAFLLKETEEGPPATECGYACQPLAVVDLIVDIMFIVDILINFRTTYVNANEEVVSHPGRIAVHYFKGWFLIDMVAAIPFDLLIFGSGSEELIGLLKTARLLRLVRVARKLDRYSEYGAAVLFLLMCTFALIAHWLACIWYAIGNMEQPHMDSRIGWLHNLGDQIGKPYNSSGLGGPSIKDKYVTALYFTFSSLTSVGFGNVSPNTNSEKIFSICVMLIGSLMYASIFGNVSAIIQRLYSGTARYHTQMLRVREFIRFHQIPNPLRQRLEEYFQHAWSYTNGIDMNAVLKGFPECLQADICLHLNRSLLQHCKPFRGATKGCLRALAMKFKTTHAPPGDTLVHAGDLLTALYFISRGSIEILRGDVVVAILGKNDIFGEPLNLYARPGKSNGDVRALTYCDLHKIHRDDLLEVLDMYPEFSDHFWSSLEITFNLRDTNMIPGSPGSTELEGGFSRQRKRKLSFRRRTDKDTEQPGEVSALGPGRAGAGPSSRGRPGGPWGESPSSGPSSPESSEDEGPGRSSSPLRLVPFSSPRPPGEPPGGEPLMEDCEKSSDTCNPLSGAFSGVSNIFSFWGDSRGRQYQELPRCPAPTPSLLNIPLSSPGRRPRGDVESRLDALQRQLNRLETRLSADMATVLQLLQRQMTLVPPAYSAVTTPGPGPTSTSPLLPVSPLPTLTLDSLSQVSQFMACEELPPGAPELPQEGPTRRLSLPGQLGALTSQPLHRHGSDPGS
Answers are plain numbers, in µM.

Illustrative cases are given below, each with its answer.
# molecule, IC50, µM
records = [
    ("N[C@@H]1c2ccccc2CC12CCN(c1nc3[nH]nc(C4(c5ccccc5)CC4(F)F)c3c(=O)[nH]1)CC2 (stereo partly shown)", 10.4),
    ("N[C@@H]1c2ccccc2CC12CCN(c1nc3[nH]nc(C4(c5cccs5)CC4)c3c(=O)[nH]1)CC2", 14.8),
]

Kindly consider the entry below.
Request: Given N#Cc1ccc(C2(c3n[nH]c4nc(N5CCC6(CC5)Cc5ccccc5[C@H]6N)[nH]c(=O)c34)CC2)cc1 , state its recorded IC50.
Result: 7.9
